All values here come from ChEMBL document CHEMBL4340553.

# target_desc: Vascular endothelial growth factor receptor 2 (Homo sapiens, UniProt P35968)
# Sequence (P35968 whole entry): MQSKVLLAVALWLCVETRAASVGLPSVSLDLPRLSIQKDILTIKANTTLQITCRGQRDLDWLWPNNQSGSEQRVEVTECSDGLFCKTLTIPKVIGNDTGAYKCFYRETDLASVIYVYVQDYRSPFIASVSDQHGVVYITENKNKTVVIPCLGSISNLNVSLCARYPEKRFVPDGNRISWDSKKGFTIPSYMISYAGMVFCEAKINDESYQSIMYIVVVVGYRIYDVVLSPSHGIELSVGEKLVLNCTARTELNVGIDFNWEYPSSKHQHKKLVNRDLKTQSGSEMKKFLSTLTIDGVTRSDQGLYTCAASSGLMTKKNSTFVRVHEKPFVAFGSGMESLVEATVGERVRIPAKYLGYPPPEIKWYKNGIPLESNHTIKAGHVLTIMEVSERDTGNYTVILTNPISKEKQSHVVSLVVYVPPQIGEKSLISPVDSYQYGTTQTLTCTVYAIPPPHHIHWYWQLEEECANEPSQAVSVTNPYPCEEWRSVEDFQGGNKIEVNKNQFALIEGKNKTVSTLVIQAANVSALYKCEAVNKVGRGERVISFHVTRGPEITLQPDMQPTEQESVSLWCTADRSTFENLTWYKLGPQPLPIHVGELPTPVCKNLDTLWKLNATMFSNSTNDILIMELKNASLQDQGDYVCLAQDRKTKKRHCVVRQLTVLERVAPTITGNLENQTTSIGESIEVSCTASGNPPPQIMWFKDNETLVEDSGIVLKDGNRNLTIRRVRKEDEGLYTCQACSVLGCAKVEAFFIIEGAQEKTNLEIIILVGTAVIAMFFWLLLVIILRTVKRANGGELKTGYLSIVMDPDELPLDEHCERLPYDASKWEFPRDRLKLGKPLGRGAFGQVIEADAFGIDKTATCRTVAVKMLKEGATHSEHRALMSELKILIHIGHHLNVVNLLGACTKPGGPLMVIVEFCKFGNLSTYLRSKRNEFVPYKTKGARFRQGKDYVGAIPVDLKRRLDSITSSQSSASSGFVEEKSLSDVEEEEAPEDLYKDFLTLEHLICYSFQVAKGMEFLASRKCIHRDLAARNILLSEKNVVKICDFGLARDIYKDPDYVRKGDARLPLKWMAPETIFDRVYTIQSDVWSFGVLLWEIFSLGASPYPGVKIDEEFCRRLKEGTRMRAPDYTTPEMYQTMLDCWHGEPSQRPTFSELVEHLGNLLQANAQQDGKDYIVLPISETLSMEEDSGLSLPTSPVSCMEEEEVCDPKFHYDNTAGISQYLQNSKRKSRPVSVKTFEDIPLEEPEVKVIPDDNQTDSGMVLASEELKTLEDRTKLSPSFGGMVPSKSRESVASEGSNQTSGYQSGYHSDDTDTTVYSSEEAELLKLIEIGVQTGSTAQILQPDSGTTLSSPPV
endpoint_label: IC50

What the record says about COc1cc2c(Oc3ccc(NC(=O)NS(=O)(=O)Cc4ccc(F)cc4)cc3F)ccnc2cc1OCCCN1CCCC1 : IC50 is 0.095 µM

###

# Tested on: HT-29
# experimental_details: Cytotoxicity in human HT-29 cells assessed as reduction in cell viability incubated for 72 hrs by MTT assay
# experimental_parameters: HT-29, 72 h
Measured IC50, listed per entry for reference.
Don't forget the unit after the value.

- COc1cc2nccc(Oc3ccc(NC(=O)NS(=O)(=O)Cc4ccccc4C)cc3F)c2cc1OC: 6.21 µM
- COc1cc2c(Oc3ccc(NC(=O)NS(=O)(=O)Cc4ccc(F)cc4)cc3F)ccnc2cc1OCCCN1CCCCC1: 0.32 µM
- COc1cc2nccc(Oc3ccc(NC(=O)NS(=O)(=O)Cc4ccc(Cl)cc4)cc3F)c2cc1OC: 2.88 µM
- COc1cc2nccc(Oc3ccc(NC(=O)NS(=O)(=O)Cc4ccc(F)cc4)cc3)c2cc1OC: 3.25 µM
- CCCCOc1cc2nccc(Oc3ccc(NC(=O)NS(=O)(=O)Cc4ccccc4)cc3F)c2cc1OC: 3.12 µM
- COc1cc2nccc(Oc3ccc(NC(=O)NS(=O)(=O)Cc4cccc(F)c4)cc3F)c2cc1OC: 3.06 µM
- COc1cc2nccc(Oc3ccc(NC(=O)NS(=O)(=O)Cc4ccc(F)cc4)cc3F)c2cc1OC: 2.68 µM
- COc1cc2nccc(Oc3ccc(NC(=O)NS(=O)(=O)Cc4ccccc4)cc3F)c2cc1OC: 3.02 µM

Please turn your attention to the following entry.
Entry COc1cc2nccc(Oc3ccc(NC(=O)NS(=O)(=O)Cc4ccc(Cl)cc4Cl)cc3F)c2cc1OC , IC50 reported as 2.97 µM

###

# target_desc: Macrophage-stimulating protein receptor (Homo sapiens, UniProt Q04912)
# Sequence (Q04912 25-304 limits assumed): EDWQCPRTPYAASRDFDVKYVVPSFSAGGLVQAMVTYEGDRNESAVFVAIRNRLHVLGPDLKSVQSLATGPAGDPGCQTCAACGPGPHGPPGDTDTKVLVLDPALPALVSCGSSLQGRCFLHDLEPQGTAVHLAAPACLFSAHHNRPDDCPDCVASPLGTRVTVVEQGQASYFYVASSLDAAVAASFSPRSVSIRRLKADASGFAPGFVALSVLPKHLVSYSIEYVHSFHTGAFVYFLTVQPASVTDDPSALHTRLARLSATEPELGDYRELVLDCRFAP
# Sequence (Q04912 310-1400 limits assumed): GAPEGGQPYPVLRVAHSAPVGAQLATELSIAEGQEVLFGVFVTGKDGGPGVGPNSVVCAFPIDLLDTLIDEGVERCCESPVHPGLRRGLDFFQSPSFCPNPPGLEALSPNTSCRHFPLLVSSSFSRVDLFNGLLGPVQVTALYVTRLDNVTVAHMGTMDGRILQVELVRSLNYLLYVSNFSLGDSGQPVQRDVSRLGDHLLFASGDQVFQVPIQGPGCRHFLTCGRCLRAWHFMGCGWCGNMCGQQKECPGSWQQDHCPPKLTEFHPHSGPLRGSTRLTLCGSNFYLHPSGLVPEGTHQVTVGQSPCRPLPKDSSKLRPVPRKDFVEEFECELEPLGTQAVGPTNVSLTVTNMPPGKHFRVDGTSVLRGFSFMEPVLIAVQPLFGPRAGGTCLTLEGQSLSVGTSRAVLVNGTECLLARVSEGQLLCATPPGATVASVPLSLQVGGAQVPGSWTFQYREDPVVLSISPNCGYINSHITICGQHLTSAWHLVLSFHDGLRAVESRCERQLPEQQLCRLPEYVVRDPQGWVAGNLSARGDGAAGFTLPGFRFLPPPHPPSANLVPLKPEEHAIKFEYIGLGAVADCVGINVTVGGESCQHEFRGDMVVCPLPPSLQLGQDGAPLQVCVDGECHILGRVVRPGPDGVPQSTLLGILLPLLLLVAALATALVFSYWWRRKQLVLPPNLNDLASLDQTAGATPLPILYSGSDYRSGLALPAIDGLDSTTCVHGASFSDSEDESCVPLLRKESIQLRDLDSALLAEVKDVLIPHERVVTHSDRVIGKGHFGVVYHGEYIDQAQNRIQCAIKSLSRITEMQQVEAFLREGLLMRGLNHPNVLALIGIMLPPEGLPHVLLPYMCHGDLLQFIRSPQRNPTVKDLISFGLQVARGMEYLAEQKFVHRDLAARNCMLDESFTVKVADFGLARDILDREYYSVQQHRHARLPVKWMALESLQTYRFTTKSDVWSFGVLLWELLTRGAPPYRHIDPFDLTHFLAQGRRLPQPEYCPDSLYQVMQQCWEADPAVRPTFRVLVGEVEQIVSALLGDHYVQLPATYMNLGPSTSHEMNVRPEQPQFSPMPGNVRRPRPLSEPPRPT
endpoint_label: pIC50
In textbook form, pIC50 equals minus log to base ten of the concentration in mol/L.

Measured pIC50, COc1cc2c(Oc3ccc(NC(=O)NS(=O)(=O)Cc4ccc(F)cc4)cc3F)ccnc2cc1OCCCN1CCCC1 : 6.43

###

# target_desc: Vascular endothelial growth factor receptor 1 (Homo sapiens)
# Sequence (P17948 whole entry): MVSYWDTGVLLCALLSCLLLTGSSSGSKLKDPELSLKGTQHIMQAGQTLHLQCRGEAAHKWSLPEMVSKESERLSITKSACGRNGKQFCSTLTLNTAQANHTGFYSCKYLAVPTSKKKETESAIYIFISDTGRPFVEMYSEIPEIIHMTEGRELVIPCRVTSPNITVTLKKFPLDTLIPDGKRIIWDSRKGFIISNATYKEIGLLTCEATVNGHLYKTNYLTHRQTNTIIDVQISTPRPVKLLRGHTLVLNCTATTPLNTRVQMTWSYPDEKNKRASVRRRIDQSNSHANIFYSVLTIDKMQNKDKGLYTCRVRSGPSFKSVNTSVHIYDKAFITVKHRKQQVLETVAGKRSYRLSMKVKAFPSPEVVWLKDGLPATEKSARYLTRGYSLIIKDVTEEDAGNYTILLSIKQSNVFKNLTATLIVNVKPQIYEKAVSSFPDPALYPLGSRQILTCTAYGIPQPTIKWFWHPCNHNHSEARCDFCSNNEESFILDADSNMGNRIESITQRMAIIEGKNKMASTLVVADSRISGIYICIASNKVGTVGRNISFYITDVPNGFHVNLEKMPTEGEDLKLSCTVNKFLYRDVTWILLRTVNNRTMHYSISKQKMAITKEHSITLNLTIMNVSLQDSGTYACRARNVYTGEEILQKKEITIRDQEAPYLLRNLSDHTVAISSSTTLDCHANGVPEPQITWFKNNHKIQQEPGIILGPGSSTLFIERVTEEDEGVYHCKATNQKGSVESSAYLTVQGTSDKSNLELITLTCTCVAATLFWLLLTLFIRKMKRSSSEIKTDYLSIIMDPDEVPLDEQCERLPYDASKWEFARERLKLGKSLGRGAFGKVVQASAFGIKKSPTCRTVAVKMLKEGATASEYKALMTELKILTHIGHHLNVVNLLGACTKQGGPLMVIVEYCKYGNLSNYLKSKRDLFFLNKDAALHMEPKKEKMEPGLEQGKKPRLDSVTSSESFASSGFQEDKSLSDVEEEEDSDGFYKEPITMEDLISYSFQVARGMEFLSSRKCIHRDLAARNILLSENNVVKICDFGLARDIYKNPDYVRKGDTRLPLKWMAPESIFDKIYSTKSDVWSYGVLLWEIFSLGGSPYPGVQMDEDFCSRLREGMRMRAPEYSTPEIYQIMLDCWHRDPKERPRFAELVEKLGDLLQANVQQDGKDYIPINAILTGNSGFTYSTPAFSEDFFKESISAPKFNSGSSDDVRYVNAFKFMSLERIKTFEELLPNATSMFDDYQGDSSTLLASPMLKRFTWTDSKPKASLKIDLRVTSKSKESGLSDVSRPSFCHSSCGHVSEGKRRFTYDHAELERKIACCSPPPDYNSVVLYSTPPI
endpoint_label: IC50 (µM)
Give the value, in units of µM, as a plain number.

Reported IC50 (Vascular endothelial growth factor receptor 1 (Homo sapiens)) for entry COc1cc2c(Oc3ccc(NC(=O)NS(=O)(=O)Cc4ccc(F)cc4)cc3F)ccnc2cc1OCCCN1CCCC1 is 0.418

###

# Tested on: HT-29
# experimental_details: Cytotoxicity in human HT-29 cells assessed as reduction in cell viability incubated for 72 hrs by MTT assay
# experimental_parameters: HT-29, 72 h
endpoint_label: IC50 (µM)
Could you give me the number in µM? Just the number is fine.

Study these solved cases before continuing.
- COc1cc2nccc(Oc3ccc(NC(=O)NS(=O)(=O)Cc4ccc(C(F)(F)F)cc4)cc3F)c2cc1OC: 8.15
- COc1cc2c(Oc3ccc(NC(=O)NS(=O)(=O)Cc4ccc(C)cc4)cc3F)ccnc2cc1OCCCN1CCCCC1: 2.17
- COc1cc2c(Oc3ccc(NC(=O)NS(=O)(=O)Cc4ccc(C)cc4)cc3F)ccnc2cc1OCCCN1CCOCC1: 3.76
- COc1cc2c(Oc3ccc(NC(=O)NS(=O)(=O)Cc4ccccc4)cc3F)ccnc2cc1OCCCN1CCCC1: 0.93
- COc1cc2nccc(Oc3ccc(NC(=O)NS(=O)(=O)Cc4ccccc4F)cc3F)c2cc1OC: 3.12

Record CCCCOc1cc2nccc(Oc3ccc(NC(=O)NS(=O)(=O)Cc4ccc(C)cc4)cc3F)c2cc1OC , field IC50: 9.32

Given item COc1cc2c(Oc3ccc(NC(=O)NS(=O)(=O)Cc4ccc(F)cc4)cc3F)ccnc2cc1OCCCN1CCOCC1 , the value recorded as its IC50 is 0.34
